# ASSAYED_TARGET: Human GPR120 short form (short splice variant, NM_001195755.1) (Homo sapiens, UniProt Q5NUL3)
# METHOD_SUMMARY: Human GPR120 Calcium Flux Assay
# STATED_CONDITIONS: HEK-293 cells, 4200 cells/well, read-out: Human GPR120 Calcium Flux Assay Procedure B EC50
QUANTITY_MEASURED: pEC50
Answers are plain numbers, as −log10 of the molar value.

Known pEC50 results, listed for orientation:
COMPOUND_SMILES | pEC50
Cc1ccc(C2=C(COc3ccc(CCC(=O)O)cc3)CCOC2)cc1F | 5.96
Cc1ccc(C2=C(COc3ccc(CCC(=O)O)c(C(F)(F)F)c3)COCC2)cc1C | 5.98

Next, consider the following compound.
### Prompt Fill in pEC50 for record "Cc1ccc(C2=C(COc3ccc(CCC(=O)O)c(C(F)(F)F)c3)COCC2)c(F)c1"
### Response 6.10
